# System: Plasma
# Measurement protocol: Anticoagulant activity in citrated human pooled plasma assessed as prolongation of activated partial thromboplastin time incubated for 5 mins by aPTT reagent based semi-automated coagulometric analysis
# Format: functional

- Compound: "COc1cn(C(Cc2ccccc2)c2cn(-c3ccc(C(=O)O)cc3)nn2)c(=O)cc1-c1cc(Cl)ccc1-n1cc(C(F)(F)F)nn1 (stereo not given)"
  EC1.5 / µM: 0.81
- Compound: "COc1cn(C(Cc2ccccc2)c2cn(-c3ccc(C(=O)O)cc3)nn2)c(=O)cc1-c1cc(Cl)ccc1-n1cc(Cl)nn1 (stereo not given)"
  EC1.5 / µM: 1.41
- Compound: "CC[C@@H](c1cn(-c2ccc(C(=O)OC)cc2)nn1)n1cc(OC)c(-c2cc(Cl)ccc2-n2cc(Cl)nn2)cc1=O"
  EC1.5 / µM: 13.2
- Compound: "COc1cn([C@@H](Cc2ccccc2)c2cn(-c3ccc(C(=O)O)cc3)nn2)c(=O)cc1-c1cc(Cl)ccc1-n1cc(C(F)(F)F)nn1"
  EC1.5 / µM: 0.55
- Compound: "COc1cn(C(Cc2ccccc2)c2cn(-c3cn[nH]c3)nn2)c(=O)cc1-c1cc(Cl)ccc1-n1cc(Cl)nn1 (stereo not given)"
  EC1.5 / µM: 2.64

---

Reported values of IC50 for individual entries
# System tested: UniProt P00734
Assay endpoint: IC50 (µM)

- Compound: "COc1cn([C@@H](Cc2ccccc2)c2cn(-c3ccc(C(=O)O)cc3)nn2)c(=O)cc1-c1cc(Cl)ccc1-n1cc(Cl)nn1"
  Assay endpoint: "IC50"
  Units symbol: "µM"
  Experimental value: 24.4
- Compound: "COc1cn(C(Cc2ccccc2)c2cn(-c3ccc(C(=O)O)cc3)nn2)c(=O)cc1-c1cc(Cl)ccc1-n1cc(C(F)(F)F)nn1 (configuration not stated)"
  Assay endpoint: "IC50"
  Units symbol: "µM"
  Experimental value: 53.7

---

# System tested: UniProt:P03951
# Measurement protocol: Inhibition of Factor XIa (unknown origin)
Assay endpoint: IC50 (nM)

- Molecule: "CCC(c1ccc2cc(C(=O)O)ccc2c1)n1cc(OC)c(-c2cc(Cl)ccc2-n2cc(C(F)(F)F)nn2)cc1=O (stereo unspecified)"
  Experimental value: 86.6

---

Reported values of IC50 for individual entries
# System tested: Plasma kallikrein (Homo sapiens, UniProt P03952)
# Sequence (P03952 20-390 limits assumed): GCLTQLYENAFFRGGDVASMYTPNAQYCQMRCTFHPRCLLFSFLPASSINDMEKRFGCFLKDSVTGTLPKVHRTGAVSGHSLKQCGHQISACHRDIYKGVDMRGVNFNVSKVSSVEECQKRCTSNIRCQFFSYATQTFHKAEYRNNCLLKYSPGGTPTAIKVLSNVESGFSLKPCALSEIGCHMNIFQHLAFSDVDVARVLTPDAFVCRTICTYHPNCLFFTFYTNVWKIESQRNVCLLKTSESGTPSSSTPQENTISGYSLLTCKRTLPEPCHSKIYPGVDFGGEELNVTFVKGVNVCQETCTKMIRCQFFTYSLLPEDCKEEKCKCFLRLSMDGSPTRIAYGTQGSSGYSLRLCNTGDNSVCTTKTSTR
# Sequence (P03952 391-638 limits assumed): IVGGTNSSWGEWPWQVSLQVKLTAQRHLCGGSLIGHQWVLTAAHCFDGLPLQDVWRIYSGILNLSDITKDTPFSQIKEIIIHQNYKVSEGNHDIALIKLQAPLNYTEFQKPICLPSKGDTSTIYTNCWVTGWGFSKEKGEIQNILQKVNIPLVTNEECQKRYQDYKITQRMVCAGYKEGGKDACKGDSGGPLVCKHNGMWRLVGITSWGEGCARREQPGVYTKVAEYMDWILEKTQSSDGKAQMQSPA
# Measurement protocol: Inhibition of human PKa using H-Pro-Phe-Arg-AMC as substrate incubated for 15 mins by fluorescence reader analysis

- Compound: "COc1cn([C@H](Cc2ccccc2)c2cn(-c3ccc(C(=O)O)cc3)nn2)c(=O)cc1-c1cc(Cl)ccc1-n1cc(Cl)nn1"
  Units symbol: "nM"
  IC50: 1870
- Compound: "COc1cn(Cc2cn(-c3ccccc3)nn2)c(=O)cc1-c1cc(Cl)ccc1-n1cc(Cl)nn1"
  Units symbol: "nM"
  IC50: 766
- Compound: "COc1cn(Cc2cn(-c3ccc(C(=O)O)cc3)nn2)c(=O)cc1-c1cc(Cl)ccc1-n1cc(Cl)nn1"
  Units symbol: "nM"
  IC50: 832
- Compound: "COc1cn(Cc2cn(-c3ccc(Cl)nc3C#N)nn2)c(=O)cc1-c1cc(Cl)ccc1-n1cc(Cl)nn1"
  Units symbol: "nM"
  IC50: 15800
- Compound: "COc1cn([C@@H](Cc2ccccc2)c2cn(-c3ccc(C(=O)O)cc3)nn2)c(=O)cc1-c1cc(Cl)ccc1-n1cc(Cl)nn1"
  Units symbol: "nM"
  IC50: 73.1
- Compound: "COc1cn([C@@H](Cc2ccccc2)c2cn(-c3ccc(C(=O)O)cc3)nn2)c(=O)cc1-c1cc(Cl)ccc1-n1cc(C(F)(F)F)nn1"
  Units symbol: "nM"
  IC50: 59.2
- Compound: "COC(=O)c1ncccc1-n1cc(Cn2cc(OC)c(-c3cc(Cl)ccc3-n3cc(Cl)nn3)cc2=O)nn1"
  Units symbol: "nM"
  IC50: 19700
- Compound: "CCC(c1cn(-c2ccccc2C(=O)OC)nn1)n1cc(OC)c(-c2cc(Cl)ccc2-n2cc(Cl)nn2)cc1=O (stereo not drawn)"
  Units symbol: "nM"
  IC50: 4840

---

Reported values of IC50 for individual entries
# System tested: Coagulation factor XI (Homo sapiens, UniProt P03951)
# Sequence (P03951 19-387 limits assumed): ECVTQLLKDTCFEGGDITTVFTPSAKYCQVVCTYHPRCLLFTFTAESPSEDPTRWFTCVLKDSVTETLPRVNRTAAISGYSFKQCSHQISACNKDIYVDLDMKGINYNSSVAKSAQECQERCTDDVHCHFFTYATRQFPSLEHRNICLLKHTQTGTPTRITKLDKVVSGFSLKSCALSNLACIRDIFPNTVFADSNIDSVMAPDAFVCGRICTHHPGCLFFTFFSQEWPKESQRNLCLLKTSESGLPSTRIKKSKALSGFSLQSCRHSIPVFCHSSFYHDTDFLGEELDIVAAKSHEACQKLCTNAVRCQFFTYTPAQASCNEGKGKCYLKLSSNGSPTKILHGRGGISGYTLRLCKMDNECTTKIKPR
# Sequence (P03951 388-625 limits assumed): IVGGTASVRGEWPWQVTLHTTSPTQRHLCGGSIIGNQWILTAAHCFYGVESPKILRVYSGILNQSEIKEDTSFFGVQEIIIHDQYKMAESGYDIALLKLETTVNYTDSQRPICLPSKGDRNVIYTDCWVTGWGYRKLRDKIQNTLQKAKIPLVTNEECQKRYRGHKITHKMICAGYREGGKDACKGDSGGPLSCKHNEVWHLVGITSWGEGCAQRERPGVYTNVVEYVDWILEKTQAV
# Measurement protocol: Inhibition of human Factor XIa using Boc-Glu(OBzl)-Ala-Arg-AMC assessed as AMC release preincubated for 15 mins followed by substrate addition and measured after 10 mins by microplate fluorescence reader analysis

- Compound: "CCC(c1cn(-c2cnn(C)c2)nn1)n1cnc(-c2cc(Cl)ccc2-n2cc(Cl)nn2)cc1=O (centres undefined)"
  Units symbol: "nM"
  IC50: 14600
- Compound: "COc1ccc(-n2cc(Cn3cc(OC)c(-c4cc(Cl)ccc4-n4cc(Cl)nn4)cc3=O)nn2)c(C)n1"
  Units symbol: "nM"
  IC50: 917
- Compound: "COc1cn(Cc2cn(-c3ccccc3C(=O)O)nn2)c(=O)cc1-c1cc(Cl)ccc1-n1cc(Cl)nn1"
  Units symbol: "nM"
  IC50: 272
- Compound: "CCC(c1cn(-c2ccccc2)nn1)n1cc(OC)c(-c2cc(Cl)ccc2-n2cc(Cl)nn2)cc1=O (centres undefined)"
  Units symbol: "nM"
  IC50: 535

---

# System tested: Coagulation factor XI (Homo sapiens, UniProt P03951)
# Measurement protocol: Inhibition of human Factor XIa using Boc-Glu(OBzl)-Ala-Arg-AMC assessed as AMC release preincubated for 15 mins followed by substrate addition and measured after 10 mins by microplate fluorescence reader analysis
Reported values of IC50 for individual entries
Assay endpoint: IC50

- Compound: "COc1cn([C@H](Cc2ccccc2)c2cn(-c3ccc(C(=O)O)cc3)nn2)c(=O)cc1-c1cc(Cl)ccc1-n1cc(C(F)(F)F)nn1"
  Assay endpoint: "IC50"
  Experimental value: "102 nM"
- Compound: "COC(=O)c1ccc(-n2cc(C(Cc3ccccc3)n3cc(OC)c(-c4cc(Cl)ccc4-n4cc(C(F)(F)F)nn4)cc3=O)nn2)cc1 (stereo not drawn)"
  Assay endpoint: "IC50"
  Experimental value: "38.3 nM"
- Compound: "CCC(c1cn(-c2ccccc2C(=O)OC)nn1)n1cc(OC)c(-c2cc(Cl)ccc2-n2cc(Cl)nn2)cc1=O (stereo not drawn)"
  Assay endpoint: "IC50"
  Experimental value: "1960 nM"
- Compound: "CCC(c1cn(-c2cnn(C)c2)nn1)n1cc(OC)c(-c2cc(Cl)ccc2-n2cc(Cl)nn2)cc1=O (stereo not drawn)"
  Assay endpoint: "IC50"
  Experimental value: "609 nM"
- Compound: "COc1cn(Cc2cn(-c3cccnc3C)nn2)c(=O)cc1-c1cc(Cl)ccc1-n1cc(Cl)nn1"
  Assay endpoint: "IC50"
  Experimental value: "1240 nM"
- Compound: "COC(=O)c1cccc(-n2cc(Cn3cc(OC)c(-c4cc(Cl)ccc4-n4cc(Cl)nn4)cc3=O)nn2)c1"
  Assay endpoint: "IC50"
  Experimental value: "519 nM"
- Compound: "COc1cn([C@@H](Cc2ccccc2)c2cn(-c3ccc(C(=O)O)cc3)nn2)c(=O)cc1-c1cc(Cl)ccc1-n1cc(C(F)(F)F)nn1"
  Assay endpoint: "IC50"
  Experimental value: "0.38 nM"
- Compound: "COC(=O)c1ccc(-n2cc(C(Cc3ccccc3)n3cc(OC)c(-c4cc(Cl)ccc4-n4cc(Cl)nn4)cc3=O)nn2)cc1 (stereo not drawn)"
  Assay endpoint: "IC50"
  Experimental value: "27 nM"
